Target: T1, human TIM-3 protein on human PBMC (human, UniProt Q8TDQ0 22-301)
T1 sequence: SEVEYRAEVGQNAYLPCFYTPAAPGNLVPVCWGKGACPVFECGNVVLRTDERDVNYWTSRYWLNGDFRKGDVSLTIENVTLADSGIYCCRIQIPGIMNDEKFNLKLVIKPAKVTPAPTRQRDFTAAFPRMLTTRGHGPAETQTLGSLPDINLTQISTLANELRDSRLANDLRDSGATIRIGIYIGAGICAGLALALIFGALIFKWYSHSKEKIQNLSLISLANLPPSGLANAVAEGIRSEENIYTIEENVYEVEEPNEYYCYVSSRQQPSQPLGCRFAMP
Assay: cell-based or functional assay
ENDPOINT LABEL: IFN-γ production, lymphocyte activation assay (donor Y), antibody 1 µg/ml, N = 2 (pg/mL)
Hi! Could you send only the number? It should be in pg/mL, unit omitted.

// query IFN-γ production, lymphocyte activation assay (donor Y), antibody 1 µg/ml, N = 2 value for entry fully human TIM-3 antibody 39E5H1 (antibody, human IgG4, V domains shown, also called antibody number 6) VH: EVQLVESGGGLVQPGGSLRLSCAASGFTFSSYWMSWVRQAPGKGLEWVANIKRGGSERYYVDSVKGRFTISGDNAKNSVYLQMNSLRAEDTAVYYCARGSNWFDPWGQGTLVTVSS VL: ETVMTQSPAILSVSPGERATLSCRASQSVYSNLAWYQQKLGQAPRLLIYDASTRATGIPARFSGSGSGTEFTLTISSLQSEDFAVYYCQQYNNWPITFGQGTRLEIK 3600

// query IFN-γ production, lymphocyte activation assay (donor Y), antibody 1 µg/ml, N = 2 value for entry fully human TIM-3 antibody 7A4F10 (antibody, human IgG4, V domains shown, also called antibody number 1) VH: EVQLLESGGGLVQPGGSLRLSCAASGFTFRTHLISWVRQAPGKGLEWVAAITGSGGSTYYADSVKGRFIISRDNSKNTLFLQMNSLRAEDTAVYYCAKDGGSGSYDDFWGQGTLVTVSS VL: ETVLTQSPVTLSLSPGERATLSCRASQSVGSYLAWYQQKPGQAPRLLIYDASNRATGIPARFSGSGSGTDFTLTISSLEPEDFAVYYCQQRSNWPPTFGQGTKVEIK 3220
